target-system: Androgen receptor (Homo sapiens)
Sequence (P10275 whole entry): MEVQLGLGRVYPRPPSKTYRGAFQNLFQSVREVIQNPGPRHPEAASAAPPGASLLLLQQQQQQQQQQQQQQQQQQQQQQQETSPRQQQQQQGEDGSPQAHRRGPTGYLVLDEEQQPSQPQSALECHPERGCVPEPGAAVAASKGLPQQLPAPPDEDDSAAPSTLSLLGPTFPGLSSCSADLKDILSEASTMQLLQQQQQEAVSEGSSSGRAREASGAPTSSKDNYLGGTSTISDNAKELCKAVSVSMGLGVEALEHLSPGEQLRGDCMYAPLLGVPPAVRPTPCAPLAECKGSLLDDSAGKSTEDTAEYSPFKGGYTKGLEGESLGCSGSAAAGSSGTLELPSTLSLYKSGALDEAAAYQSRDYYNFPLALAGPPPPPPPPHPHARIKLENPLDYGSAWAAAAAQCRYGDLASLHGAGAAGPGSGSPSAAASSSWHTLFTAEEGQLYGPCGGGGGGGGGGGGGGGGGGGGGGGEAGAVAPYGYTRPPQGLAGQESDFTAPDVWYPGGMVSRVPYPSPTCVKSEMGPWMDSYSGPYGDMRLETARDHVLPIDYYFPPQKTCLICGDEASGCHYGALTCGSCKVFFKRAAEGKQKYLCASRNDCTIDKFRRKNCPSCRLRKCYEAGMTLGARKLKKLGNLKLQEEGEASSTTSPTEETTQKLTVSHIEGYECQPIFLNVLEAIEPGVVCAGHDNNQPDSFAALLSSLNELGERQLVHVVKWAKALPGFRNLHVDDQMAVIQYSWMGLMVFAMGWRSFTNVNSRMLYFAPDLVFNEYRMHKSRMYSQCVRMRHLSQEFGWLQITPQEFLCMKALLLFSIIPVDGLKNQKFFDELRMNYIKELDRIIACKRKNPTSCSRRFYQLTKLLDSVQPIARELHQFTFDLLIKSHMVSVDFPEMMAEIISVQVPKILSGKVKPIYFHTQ
protocol-description: Antagonist activity at androgen receptor (unknown origin) in human LNCap-ARR2PB-eGFP cells by measuring fluorescence intensity measured after 3 days by transcriptional assay
pIC50: −log10 of the molar value.
Is pIC50 at least 6? Then Condition met. If not, Condition not met.

As a guide, the following entries are already answered.
structure_notation=N#Cc1ccc(-n2ccc(CCNC(=O)c3ccc(F)cc3)n2)cc1C(F)(F)F target_system="Androgen receptor (Homo sapiens)" class_label="Condition not met"
structure_notation=N#Cc1ccc(NC(=O)Cc2ccn(-c3ccc(C#N)c(C(F)(F)F)c3)n2)cc1 target_system="Androgen receptor (Homo sapiens)" class_label="Condition met"
structure_notation=N#Cc1ccc(-n2ccc(CNS(=O)(=O)c3ccc(F)cc3)n2)cc1C(F)(F)F target_system="Androgen receptor (Homo sapiens)" class_label="Condition not met"
structure_notation=O=C(Cc1ccn(-c2ccc([N+](=O)[O-])c(C(F)(F)F)c2)n1)Nc1ccc(F)cc1 target_system="Androgen receptor (Homo sapiens)" class_label="Condition met"
structure_notation=N#Cc1cc(NC(=O)Cc2ccn(-c3ccc(C#N)c(C(F)(F)F)c3)n2)ccc1F target_system="Androgen receptor (Homo sapiens)" class_label="Condition not met"

Let's switch to this molecule now.
**Query** Does N#Cc1ccc(C(=O)NCc2ccn(-c3ccc(C#N)c(C(F)(F)F)c3)n2)cc1 have a reported pIC50 of at least 6?
**Result** Condition met
